B1: C22orf15 (parent)
chain: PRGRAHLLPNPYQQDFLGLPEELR

Variants of: B1
assay_notes: protein stability index of a GFP-peptide fusion (GPS, HEK-293T) (PSI 1-6); higher = more stable;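 further: lentivirally expressed fusions sorted by FACS into six bins by GFP to DsRed ratio, PSI derived from sequencing read proportions per bin multiplied by bin number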
condition: c terminus: a fixed tail appended

| seq_text | protein stability index |
| --- | --- |
| PRGRMHLLPNPYQQDFLGLPEELR [A5M] | 3.48 |
| PRGRAHLLPNPYQTDFLGLPEELR [Q14T] | 3.77 |
| PRGRAFLLPNPYQQDFLGLPEELR [H6F] | 2.99 |
| HRGRAHLLPNPYQQDFLGLPEELR [P1H] | 3.6 |
| PRGRAHLLPNPYQQDFLGLPEELK [R24K] | 4.12 |
| PRGRSHLLPNPYQQDFLGLPEELR [A5S] | 4.04 |
| PRGRAHLWPNPYQQDFLGLPEELR [L8W] | 2.56 |
| PRGPAHLLPNPYQQDFLGLPEELR [R4P] | 3.92 |
| PRGRAHLLPNPYQQDFLGHPEELR [L19H] | 4.21 |
| PRGRAHLLPLPYQQDFLGLPEELR [N10L] | 3.69 |
| PRGRAHLQPNPYQQDFLGLPEELR [L8Q] | 4.24 |
